# System: Scirpus juncoides
# measurement.notes: Test Example 2: herbicidal effect test by treatment during growing period in paddy rice cultivation (seven days after seeding)
# Type: in vivo
# assay.setup: 120 g/10a active ingredient, assessed 14 days after treatment, dry weight vs untreated area
Below is a list of entries, each paired with its recorded Herbicidal rate (%) Scirpus juncoides value.
Output spec: scalar in %, unitless text.

• CCCCCC(c1ccccc1)n1oc(=O)c(Cc2ccccc2N(S(=O)(=O)C(F)(F)F)S(=O)(=O)C(F)(F)F)c1C (stereo not shown) = 70
• CCS(=O)(=O)N(c1ccccc1Cc1c(C)n(CCSC)oc1=O)S(=O)(=O)C(F)(F)F = 90
• Cc1c(Cc2ccccc2NS(=O)(=O)C(F)(F)F)c(=O)on1C1CCCc2ccccc21 (stereo not shown) = 80

Note: attention shifts to another entry.
Input: Bench note: what Herbicidal rate (%) Scirpus juncoides did CCC(C)n1oc(=O)c(Cc2ccccc2N(C(=O)C(C)C)S(=O)(=O)C(F)(F)F)c1C (stereo not shown) show?
Output: 90
